B1: Cold shock protein CspB, P41016 (parent)
chain: MQRGKVKWFNNEKGYGFIEVEGGSDVFVHFTAIQGEGFKTLEEGQEVSFEIVQGNRGPQAANVVKL

Variants of: B1
Conditions: Bacillus caldolyticus; pH 7; Thermal; CD; Na cacodylate/HCl 0.1 M; reversible: Yes; structure 1C9O; whole UniProt chain shown
outcome.measure: unfolding enthalpy (van 't Hoff)
State the result as a value with its unit after it.

Input line: Given the entry E36K , report its measured unfolding enthalpy (van 't Hoff).
Output line: 191 kJ/mol

Input line: Given the entry N55K , report its measured unfolding enthalpy (van 't Hoff).
Output line: 231 kJ/mol

Input line: Given the entry E50K , report its measured unfolding enthalpy (van 't Hoff).
Output line: 181 kJ/mol

Input line: Given the entry E21K , report its measured unfolding enthalpy (van 't Hoff).
Output line: 205 kJ/mol
